# System: T1, MotA K59E (bacteriophage T4, UniProt P22915 1-211, K59E)
# T1 sequence: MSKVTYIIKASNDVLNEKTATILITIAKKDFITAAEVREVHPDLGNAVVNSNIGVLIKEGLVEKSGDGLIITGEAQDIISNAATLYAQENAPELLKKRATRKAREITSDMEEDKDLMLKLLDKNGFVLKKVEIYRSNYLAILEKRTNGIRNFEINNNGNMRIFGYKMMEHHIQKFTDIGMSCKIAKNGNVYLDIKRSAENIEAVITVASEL
# Test method notes: EMSA
Readout: Kd

Kd for 21 bp MotA box DNA (dsDNA) DNA 1: GAATTATTTGCTTTAGATTAC DNA 2: GTAATCTAAAGCAAATAATTC is ~500 nM
